Test system: EKVX
ASSAY SUMMARY: NCI tumour cell line growth inhibition, 48 h
Activity calls are given as the source filed them. Rule as the data show it: active = GI50 up to about 1.1 µM and inactive = higher.
// reported GI50 per item
MEASURED ATTRIBUTE: GI50

>>> result_value("CC12C(=O)CC(CC1=O)C2(C)C")
"> 100 µM (inactive)"
>>> result_value("O=C(O)CSc1cc(-c2ccccc2)nc2ccccc12")
"> 100 µM (inactive)"
>>> result_value("COc1cc(S(=O)(=O)Nc2ccc(-c3csc(/N=C\\c4ccccc4O)n3)cc2)ccc1Cl")
"29.8 µM (inactive)"
>>> result_value("O=C(CSc1nc2ccc(I)cc2c(=O)n1Cc1ccccc1)Nc1ccc(Br)cc1")
"12.9 µM (inactive)"
>>> result_value("COc1ccccc1/C=C1\\C(=O)N(C(=O)c2ccc(NC(C)=O)cc2)N=C1C")
"> 100 µM (inactive)"
>>> result_value("CCN(CC)CCNC(=O)c1cccc2cc3ccccc3nc12")
"5.73 µM (inactive)"
>>> result_value("O=C1c2c(O)cccc2C(C2OC(CO)C(O)C(O)C2O)c2cc(CO)cc(O)c21 (stereo unspecified)")
"> 100 µM (inactive)"
>>> result_value("COc1ccc(C2C(=O)C(Cl)N2Nc2nc(C)cc(O)n2)cc1OC (stereo unspecified)")
"56.8 µM (inactive)"
>>> result_value("O=C(O)c1c[nH]cc1C(=O)O")
"> 100 µM (inactive)"
>>> result_value("O=C(N/C(=C\\c1c(O)ccc2ccccc12)c1nc2ccccc2[nH]1)c1ccccc1")
"> 100 µM (inactive)"
>>> result_value("O=C1CCC(Cl)=CC2CCCN12 (stereo unspecified)")
"> 100 µM (inactive)"
